# STUDY TARGET: T1, IL10Rα/IL2Rγ receptor (human, UniProt Q13651 22-578; P31785 23-369)
# T1 sequence (looked up) 1: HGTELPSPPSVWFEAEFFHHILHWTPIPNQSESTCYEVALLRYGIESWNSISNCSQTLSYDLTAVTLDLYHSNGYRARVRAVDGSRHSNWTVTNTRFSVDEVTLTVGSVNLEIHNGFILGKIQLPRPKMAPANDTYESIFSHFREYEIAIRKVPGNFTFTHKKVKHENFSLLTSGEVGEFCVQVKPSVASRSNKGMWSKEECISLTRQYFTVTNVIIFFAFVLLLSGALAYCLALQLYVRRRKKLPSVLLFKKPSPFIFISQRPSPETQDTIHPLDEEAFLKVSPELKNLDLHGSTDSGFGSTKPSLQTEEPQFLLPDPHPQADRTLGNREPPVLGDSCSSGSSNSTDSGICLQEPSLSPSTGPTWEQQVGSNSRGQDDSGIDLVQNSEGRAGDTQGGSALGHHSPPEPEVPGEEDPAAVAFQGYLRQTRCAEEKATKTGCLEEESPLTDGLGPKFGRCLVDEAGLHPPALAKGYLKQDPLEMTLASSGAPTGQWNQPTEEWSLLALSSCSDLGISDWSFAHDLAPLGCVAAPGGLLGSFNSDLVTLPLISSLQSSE
# T1 sequence (looked up) 2: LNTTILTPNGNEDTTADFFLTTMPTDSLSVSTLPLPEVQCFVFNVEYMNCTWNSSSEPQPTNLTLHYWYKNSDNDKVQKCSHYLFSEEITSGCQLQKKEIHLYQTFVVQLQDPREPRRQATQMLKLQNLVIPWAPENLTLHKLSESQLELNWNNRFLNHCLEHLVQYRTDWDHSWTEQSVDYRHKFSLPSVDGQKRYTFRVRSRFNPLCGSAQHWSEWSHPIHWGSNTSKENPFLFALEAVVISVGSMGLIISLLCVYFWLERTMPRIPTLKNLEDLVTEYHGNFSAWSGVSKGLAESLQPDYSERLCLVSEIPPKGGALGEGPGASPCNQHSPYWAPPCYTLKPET
# ASSAY: cell-based or functional assay
REPORTED ENDPOINT: pSTAT3 MFI, NK cells, 100 nM (unstimulated 1149) (MFI)

>>> reported_measurement("DR438(DR235-DR234) (bispecific antibody) QVQLQESGGGSVQAGGSLRLSCAASRYLYSIDYMAWFRQSPGKEREPVAVIYTASGATFYPDSVKGRFTISQDNAKMTVYLQMNSLKSEDTAMYYCAAVRKTDSYLFDAQSFTYWGQGTQVTVSSGGGSQVQLQESGGGSVQAGGSLRLSCVASGYTFSSYCMGWFRQAPGKEREGVAALGGGSTYYADSVKGRFTISQDNAKNTLYLQMNSLKPEDTAMYYCAAAWVACLEFGGSWYDLARYKHWGQGTQVTVSSASHHHHHH")
1170
>>> reported_measurement("DR444(DR236-DR234) (bispecific antibody) QVQLQESGGGSVQAGGSLRLSCAASRFTYSSYCMGWFRQAPGKEREGVASIDSDGSTSYTDSVKGRFTISKDNAKNTLYLQMNSLKPEDTAMYYCALDLMSTVVPGFCGFLLSAGMDYWGKGTQVTVSSGGGSQVQLQESGGGSVQAGGSLRLSCVASGYTFSSYCMGWFRQAPGKEREGVAALGGGSTYYADSVKGRFTISQDNAKNTLYLQMNSLKPEDTAMYYCAAAWVACLEFGGSWYDLARYKHWGQGTQVTVSSASHHHHHH")
1270
